Molecular target: T1, PUF4 RNA-binding domain (Saccharomyces cerevisiae, UniProt P25339 537-888)
T1 sequence: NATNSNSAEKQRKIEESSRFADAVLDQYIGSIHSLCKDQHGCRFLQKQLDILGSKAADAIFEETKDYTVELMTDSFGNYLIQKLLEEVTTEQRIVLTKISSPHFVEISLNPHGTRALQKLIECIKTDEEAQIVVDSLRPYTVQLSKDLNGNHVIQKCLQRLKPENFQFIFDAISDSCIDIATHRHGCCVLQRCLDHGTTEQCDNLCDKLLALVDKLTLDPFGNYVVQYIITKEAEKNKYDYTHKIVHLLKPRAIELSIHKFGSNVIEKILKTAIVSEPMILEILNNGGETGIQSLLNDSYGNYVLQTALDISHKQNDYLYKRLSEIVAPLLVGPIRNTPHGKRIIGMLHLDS
Experiment: Mg; RNA-MaP; 20 mM Na-HEPES pH 7.4, 30 mM KOAc, 0.75 mM MgCl2, 0.1% Tween-20, 5% glycerol, 0.1 mg/mL BSA, 2 mM DTT; 25 C; 0.0125-409.6 nM protein
Details: tags: N-His6-TEV cleaved; C-SNAP kept, Cy3B-labelled; label: tethered on chip by stalled RNA polymerase
pKd: −log10 of the molar value.
Label scheme for pKd: lower than 8 is N, 8 and above is Y.

Does UCUCUUUGACUUAUUAUCUCUU (ssRNA) [Ib_S1_P5E.1_K5.1_C5.1_H5.1_[T3A]_[A4C]_A5.1_F5.1_T5.1] have a reported pKd of at least 8?
N

Does UCUCUUAAUAUAUUAUUACUUCUCUU (ssRNA) [Id_ii_S1_P5E.3_K5.2_C5.2_[C-2A]_[T-1A]_H5.2_A5.1_F5.1_T5.2_[T11C]_[A12T]] have a reported pKd of at least 8?
N

Does UCUCUUACUAUAUAUUAUGUCUCUU (ssRNA) [Id_ii_S1_P4E.3_K4.2_C4.2_[C-2A]_[T-1C]_H4.2_A4.1_F4.1_T4.2_[G10T]_[T11G]] have a reported pKd of at least 8?
N

Does Id_ii_S2_P5E.2_K5.1_C5.2_[C-2A]_[T-1A]_H5.1_A5.1_F5.1_T5.2_[T11A]_[A12C] (ssRNA) RNA: UUUGAUUAAUAUGAUAUCGUUCUUUCUAAUGUAUUAUUAACUUCUUUCUCGAUAUCAUAUUAAUCUUU have a reported pKd of at least 8?
N

Does UCUCUUUGUAUCGUUUCUCUU (ssRNA) [Ic_S1_P4E.1_K4.1_C4.1_H4.1_A4.1_[A6C]_[T7G]_F4.1_[A9T]_T4.1] have a reported pKd of at least 8?
N

Does ACAAACCCACACUAUAUUACAAAC (ssRNA) [Id_ii_S3_P3E.4_K3.3_C3.2_[T-1C]_H3.3_A3.1_F3.1_T3.2_[A10T]] have a reported pKd of at least 8?
N

Does UCUCUUCCACACUAUACUUCUCUU (ssRNA) [Id_ii_S1_P3E.4_K3.3_C3.2_[T-1C]_H3.3_A3.1_F3.1_T3.2_[T9C]_[A10T]] have a reported pKd of at least 8?
N

Does Ie_S4_P4E.1_K4.1_C4.1_H4.1_A4.1_F4.1_[+9CTC]_T4.1 (ssRNA) RNA: UUUGACAACUGAUCGUUCUUUCUUGUAUAUUACUCUUCUUUCUCGAUCAGUUGUCUUU have a reported pKd of at least 8?
Y

Does Ie_S2_P5E.1_K5.1_C5.1_H5.1_[+1CCCTT]_A5.1_F5.1_T5.1 (ssRNA) RNA: UUUGAUUAAUAUGAUAUCGUUCUUUCUUCCCUUGUAUUAUUAUUCUUUCUCGAUAUCAUAUUAAUCUUU have a reported pKd of at least 8?
Y

Does Ic_S2_P4E.1_K4.1_C4.1_H4.1_A4.1_[A6C]_[T7A]_F4.1_[T8A]_[A9C]_T4.1 (ssRNA) RNA: UUUGAUUAAUAUGAUAUCGUUCUUUCUUGUAUCAACUUCUUUCUCGAUAUCAUAUUAAUCUUU have a reported pKd of at least 8?
N

Does UCUCUUGCUUAUAUAUAUAUCUCUU (ssRNA) [Id_iii_S1_P3E.6_K3.2_C3.3_[T-3G]_H3.2_A3.1_F3.1_T3.2] have a reported pKd of at least 8?
N
